Provide the reported growth of each item.
Tested on: SNB-19 CNS
METHOD: NCI-60 one-dose screen, 48 h (100 = growth as untreated, 0 = no growth, -100 = all killed)
CONDITION DESCRIPTION: 10 µM unless noted
About 83,000 compounds went through this panel and 20% of them were active in at least one assay; those are over-represented in the sample as a whole. The source made the active and inactive calls. How the source made its calls: active means growth percent below 10; inactive means the rest.

Find the recorded growth belonging to "N#CCCN(CCO)c1ccccc1" and report it.
101% (inactive)

growth lookup needed for CCCCC1Nc2nc(SC)n(C)c(=O)c2CN(Cc2ccccc2)C1=O (stereo unspecified) , thanks.
93.7% (inactive)

Can you share its growth? I mean this compound: "COc1cc(/C=C/C(=O)Nc2cccnc2Nc2cc(OC)c(OC)c(OC)c2)cc(OC)c1OC"
96.5% (inactive)

What does the data say about its growth? Entry: "C/C(=C\CCc1ccoc1)CC/C=C(\C)CCCN1CCC(CO)CC1"
76.2% (inactive)

For the compound shown here, COc1cc(C2=NN(C(C)=O)C(c3ccc(OC(C)=O)cc3OC(C)=O)O2)c(OC(C)=O)c2ccccc12 (stereo unspecified) , give the reported growth.
36.7% (inactive)

Give the measured growth of CC(C)COCC(CN(Cc1ccccc1)c1ccccc1)N1CCCC1 (stereo unspecified) .
79.1% (inactive)

* * *

Test system: HS 578T breast
METHOD: NCI-60 one-dose screen, 48 h
CONDITION DESCRIPTION: 10 µM unless noted
This is part of a sample that, as a whole, favours compounds with a hit. Of some 83,000 tested, about 20% had one in any assay. Calls of active or inactive are those of the source. How the source made its calls: active means growth percent below 10; inactive means the rest.
Mark one answer only. Choices: active, inactive

I'd appreciate the recorded outcome for "CC(C)c1ccc(C(=O)Nc2sc3c(CN(C)C)c(O)ccc3c2C(N)=O)cc1" from this test.
inactive

Each molecule tested received a call. Report the one for "S=C1SCN(Cc2ccccc2)CN1Cc1ccco1" .
inactive

Recorded test outcome, item "CCCCCCCCCCSc1ncnc2nc[nH]c12"
inactive

For this molecule, state the assay outcome: CC1SC(c2c(Cl)cccc2Cl)N(NC(=O)c2[nH]c3ccc(F)cc3c2-c2ccccc2)C1=O (stereo not drawn)
active

What did the test return for "O=C(Nc1cccc2ccccc12)c1cc2c(cc1Br)OCO2" ?
inactive

Please indicate how the test categorized C=C1CC[C@@H]2[C@](C)(COC(C)=O)[C@H](OC(C)=O)CC[C@@]2(C)[C@@H]1CC(Nc1ccc(S(=O)(=O)Nc2cc(C)on2)cc1)C1=CCOC1=O (stereo partly drawn) .
inactive

// param item: CCC(C)CC(C)C(=O)c1c(O)ccn(O)c1=O (stereo not drawn) ; yields the recorded call
inactive

Answer briefly: the call reported for "CN(C)c1ccc(/C=C(\C#N)c2nc3ccccc3c(=O)[nH]2)cc1" in this assay.
inactive

Hi, sorry to bother you, what did the test record for COc1ccc(C(=O)C(C)Br)cc1OC (stereo not drawn) ?
inactive

Which outcome did this test record for the molecule "O=C1CN(CO)C(=O)CN1CO" ?
inactive

Called result for "CC[N+](CC)(CCOCCOCC[N+](CC)(CC)Cc1ccc([N+](=O)[O-])cc1)Cc1ccc([N+](=O)[O-])cc1"
inactive

Can you look up the reported call for "O=C1C(=O)c2ccc(Br)cc2-c2cc(Br)ccc21" for me?
inactive

Which outcome was entered for the molecule CCC(C)CC(C)C(=O)c1c(O)ccn(OC)c1=O (stereo not drawn) in this test?
inactive

Recorded test outcome, item "Nc1ccc2c(c1)/C(=N/O)c1cc([N+](=O)[O-])ccc1-2"
inactive

Test call for this molecule, please: "CN(C)c1ccc2c(c1)/C(=N/O)c1ccccc1-2"
inactive

What outcome does the record of this test show for "O=C(Nc1ccc(Nc2ccncc2)cc1)c1ccc(Nc2ccnc3ccc([N+](=O)[O-])cc23)cc1[N+](=O)[O-]" ?
active

What classification did "c1csc([C@@H]2C[C@@H]3Cc4ccc5ccccc5c4N2O3)c1" end up with in this test?
inactive

Status in this test for "COc1ccc(/C=C(\C#N)c2ccccc2)cc1" ?
inactive

Just curious, what result did "O=C(Nc1ccncc1)C(=O)c1cn(S(=O)(=O)c2cccc(F)c2)c2ccccc12" get here?
inactive

Which outcome did this test record for the molecule Cc1ccc(C(O)C2=CC(=O)c3ccccc3C2=O)cc1 (stereo not drawn) ?
inactive

# fetch the recorded call for "Cn1[nH]cc(/C=N/C(N)=O)c1=O" here
inactive

Call for entry "COc1ccc(-c2cncn2-c2ccc(-c3nc4cc(OC)c(OC)c(OC)c4s3)cc2)cc1N" :
inactive

For this molecule, state the assay outcome: "Cn1c(=O)c2nc(SCc3ccccc3)n(C)c2n(C)c1=O"
inactive

# lookup: test call for "COC(=O)CC1=C(C)/C(=C/c2[nH]c(-c3ccc[nH]3)cc2OC)N=C1C"
active

Test call for this molecule, please: CCC(c1ccccc1)c1noc(CCN(CC)CC)n1 (stereo not drawn)
inactive

Recorded test outcome, item "CCCCCCOc1ccc(/C=N/NC(N)=S)cc1"
inactive

Could you check what this test reported for O=NC1CC=CCC1c1ccccc1 (stereo not drawn) ?
inactive

Call for entry CC(=O)Oc1c(C)c(OC(C)=O)c2c(c1C(C)=O)OC1CC(=O)C(C(C)=O)=C(O)C21C (stereo not drawn) :
inactive

So what was the verdict on "CN(C)c1nc(N)nc(Cn2c(-c3nonc3N)nc3ccccc32)n1" in this test?
inactive

Look up the recorded call for "O=[N+]([O-])c1cnc(Sc2ccncn2)c([N+](=O)[O-])c1" in this test.
inactive

Could you check what this test reported for COc1cc(C2=NN(C(C)=O)C(c3ccc(OC(C)=O)cc3OC(C)=O)O2)c(OC(C)=O)c2ccccc12 (stereo not drawn) ?
inactive

Could you please tell me the result logged for "c1ccc(-c2nn[nH]n2)c(-c2ccc(CN3CCN(c4nsc5ccccc45)CC3)cc2)c1" in this assay?
inactive

So what was the verdict on "O=C(/C(=N/O)S(=O)(=O)c1ccccc1)c1cccs1" in this test?
inactive

Identify the outcome logged in this assay for the molecule shown: "N#Cc1ccc(NC(=O)Nc2ccc(Oc3ccc(NC(=O)Nc4ccc(C#N)cc4)cc3)cc2)cc1"
inactive

Dear colleague, could you share the recorded outcome for "O=C(C=C=Nc1ccccc1)C(=O)N=C=Cc1ccccc1" when you have a moment?
inactive

In this assay, the call recorded for "Cc1nn(-c2ccccc2)c2nc(Cl)c(/C=C/C(=O)c3ccccc3)c(-c3ccccc3)c12" was what?
inactive

Short answer needed: outcome of this test for "Cc1cc2c(cc1C)Nc1sc(NC(=O)CN3CCN(C)CC3)nc1C(=O)N2" ?
inactive

Recorded call for CCCCC(C#N)C(N)=O (stereo not drawn) ?
inactive

For "COc1cc2c(cc1OCCCCCn1c(-c3ccc(OCc4ccccc4)cc3)nc3cc(N4CCOCC4)ccc31)N=C[C@@H]1CCCN1C2=O" , what call appears in the results of this test?
inactive

What did this assay record as the result for COc1ccc(-c2nn(-c3cccc(Cl)c3)cc2C2CC(c3ccccc3)=NN2C(C)=O)cc1 (stereo not drawn) ?
inactive

How did this test come out for "OCc1nnn(-c2ccccc2)c1CO" ?
inactive

How did this test come out for "O[C@@H]1Cc2ccc3ccccc3c2N[C@H](c2ccoc2)C1" ?
inactive

Could you please tell me the result logged for "Cc1c(C(N)=O)sc2c1C(=O)N(Cc1ccccc1)C1=NN=C(c3ccc(Cl)cc3)CN12" in this assay?
inactive

All figures here come from PubChem BioAssay (NCI).
